Origin of values: patent US20250353873A1

Test system: human APOE RNA
Assay: Dose-dependent inhibition of human APOE RNA in HepG2 cells, electroporation, 50,000 cells per well, RT-PCR normalized to GAPDH (Example 4, Tables 8-10)
Assay type: cell-based
Settings: 20,000 nM; HepG2, electroporation, 24-hour treatment
Strand notation (5' to 3'): a small letter for the sugar, then the base; units joined by * are phosphorothioate-linked, units joined directly phosphodiester-linked; [ ] holds rarer units or linkages, { } end groups; capitals alone tell only the bases. [ms] = mesyl phosphoramidate linkage; k = constrained ethyl (cEt); [5mC] = 5-methylcytosine; d = 2'-deoxy (DNA)
Experimental Readout: APOE RNA (% UTC)
Express your answer in % UTC, writing the number without its unit.

Known APOE RNA (% UTC) results, listed for orientation:
{"columns": ["Substance", "APOE RNA (% UTC)"],
 "data": [
  ["1747052 (k[5mC]*dT[ms]kT*kG*dG[ms]kT*dG[ms]dA[ms]dA[ms]dT*d[5mC]*dT*dT*dT*dA[ms]dT*kT*dA[ms]dA[ms]kA; antisense) [Compound 1747052]", 19],
  ["1746812 (k[5mC]*dT[ms]dT[ms]dG[ms]kG*kT*dG[ms]dA[ms]dA[ms]dT*d[5mC]*dT*dT*dT*dA[ms]dT*dT[ms]kA*kA*kA; antisense) [Compound 1746812]", 11],
  ["1747050 (k[5mC]*kT*kT*dG[ms]dG[ms]kT*dG[ms]dA[ms]dA[ms]dT*d[5mC]*dT*dT*dT*dA[ms]dT*kT*dA[ms]dA[ms]kA; antisense) [Compound 1747050]", 10],
  ["1746809 (k[5mC]*dT[ms]kT*dG[ms]kG*dT[ms]dG[ms]dA[ms]dA[ms]dT*d[5mC]*dT*dT*dT*dA[ms]dT*dT[ms]kA*kA*kA; antisense) [Compound 1746809]", 14],
  ["1746810 (k[5mC]*dT[ms]kT*dG[ms]dG[ms]kT*dG[ms]dA[ms]dA[ms]dT*d[5mC]*dT*dT*dT*dA[ms]dT*dT[ms]kA*kA*kA; antisense) [Compound 1746810]", 5],
  ["1753989 (k[5mC]*dT[ms]kT*dG[ms]kG*dT*dG[ms]dA[ms]dA[ms]dT*d[5mC]*dT*dT*dT*dA[ms]kT*dT[ms]kA*dA[ms]kA; antisense) [Compound 1753989]", 16]
]}

Now examine the next entry.
# APOE RNA (% UTC) measured on human APOE RNA for item 1746813 (k[5mC]*dT[ms]dT[ms]kG*dG[ms]kT*dG[ms]dA[ms]dA[ms]dT*d[5mC]*dT*dT*dT*dA[ms]dT*dT[ms]kA*kA*kA; antisense) [Compound 1746813] = 21
